Assay: Hepatocyte stability assay, human
Format: in vitro ADME
Details: cryopreserved hepatocytes, 10 μM compound, 0.5×10^6 cells/mL, 60 min, read-out: T½
Note: every record was labeled by where its half-life at 10 μM sits among band A: < 100 min; band B: ≥ 100 min and < 200 min; band C: ≥ 200 min

C=C(CC(=O)OC1(c2cccc(Cl)c2Cl)CCC1)C(=O)OCC(=O)O [Example 7] ... band B
C=C(CC(=O)OC1(c2ccc(C(F)(F)F)cc2)CCC1)C(=O)OCC(=O)O [Example 2] ... band C
C=C(CC(=O)OC1(c2ccc(OC(F)(F)F)cc2Cl)CCC1)C(=O)OCC(=O)O [Example 6] ... band A
C=C(CC(=O)OC1(c2ccc(OC(F)(F)F)cc2)CCC1)C(=O)OCC(=O)O [Example 9] ... band C
C=C(CC(=O)OC1(c2ccc(C)c(Cl)c2)CCC1)C(=O)OCC(=O)O [Example 20] ... band A

Could you tell me which band C=C(CC(=O)OC1(c2cc(Cl)ccc2Cl)CCC1)C(=O)OCC(=O)O [Example 5] belongs to?
band B

Quick check: band for C=C(CC(=O)OC1(c2ccc(C(F)(F)F)cc2Cl)CCC1)C(=O)OCC(=O)O [Example 11]
band B

Please classify: C=C(CC(=O)OC1(c2ccc(Cl)cc2)CCC1)C(=O)OCC(=O)O [Example 4]
band B

* * *

Tested on: hepatocytes
Experiment: Hepatocyte stability assay, mouse
Assay type: in vitro ADME
Details: 10 μM compound, 0.5×10^6 cells/mL, 60 min
Classes are defined on CIint with ranges L (below 70 μL min^−1 10^−6 cells), M (70 μL min^−1 10^−6 cells to below 100 μL min^−1 10^−6 cells), H (100 μL min^−1 10^−6 cells or more)

Completed entries (count: 8):
C=C(CC(=O)OC1(c2ccc(Br)cc2)CCC1)C(=O)OCC(=O)O [Example 3] ... M
C=C(CC(=O)OC1(c2cc(Cl)c(F)c(Cl)c2)CCC1)C(=O)OCC(=O)O [Example 17] ... M
C=C(CC(=O)OC1(c2c(Cl)cccc2Cl)CCC1)C(=O)OCC(=O)O [Example 8] ... H
C=C(CC(=O)OC1(c2cc(Cl)cc(Cl)c2)CCC1)C(=O)OCCC(=O)O [Example 13] ... H
C=C(CC(=O)OC1(c2ccc(OC(F)(F)F)cc2Cl)CCC1)C(=O)OCC(=O)O [Example 6] ... H
C=C(CC(=O)OC1(c2ccc(Br)cc2Cl)CCC1)C(=O)OCC(=O)O [Example 12] ... H
C=C(CC(=O)OC1(c2cccc(Cl)c2Cl)CCC1)C(=O)OCC(=O)O [Example 7] ... H
C=C(CC(=O)OC1(c2ccc(Cl)cc2Cl)CCC1)C(=O)OCC(=O)O [Example 10] ... H

Now look at this one.
Kindly identify the class of C=C(CC(=O)OC1(c2ccc(SC(F)(F)F)cc2)CCC1)C(=O)OCC(=O)O [Example 34] .
M

* * *

Could you please report measured half-life at 10 μM for the items listed next?
Assay: Hepatocyte stability assay, human
Type: in vitro ADME
Settings: cryopreserved hepatocytes, 10 μM compound, 0.5×10^6 cells/mL, 60 min, read-out: T½
Numbers only, in min.

C=C(CC(=O)OC1(c2ccc(Br)cc2)CCC1)C(=O)OCC(=O)O ... 174
C=C(CC(=O)OC1(c2cc(F)c(C(F)(F)F)c(F)c2)CCC1)C(=O)OCC(=O)O ... 187
C=C(CC(=O)OC1(c2ccc(C(F)(F)F)cc2)CCC1)C(=O)OC1(CC(=O)O)COC1 ... 202

Query molecule follows.
Requested read-out: half-life at 10 μM. Entry: C=C(CC(=O)OC1(c2cc(Cl)c(F)c(Cl)c2)CCC1)C(=O)OCC(=O)O
188

From: patent US20230399289A1
